- Experimental Target: T1, Kluyveromyces lactis SHE4, wildtype (Kluyveromyces lactis)
- T1 chain: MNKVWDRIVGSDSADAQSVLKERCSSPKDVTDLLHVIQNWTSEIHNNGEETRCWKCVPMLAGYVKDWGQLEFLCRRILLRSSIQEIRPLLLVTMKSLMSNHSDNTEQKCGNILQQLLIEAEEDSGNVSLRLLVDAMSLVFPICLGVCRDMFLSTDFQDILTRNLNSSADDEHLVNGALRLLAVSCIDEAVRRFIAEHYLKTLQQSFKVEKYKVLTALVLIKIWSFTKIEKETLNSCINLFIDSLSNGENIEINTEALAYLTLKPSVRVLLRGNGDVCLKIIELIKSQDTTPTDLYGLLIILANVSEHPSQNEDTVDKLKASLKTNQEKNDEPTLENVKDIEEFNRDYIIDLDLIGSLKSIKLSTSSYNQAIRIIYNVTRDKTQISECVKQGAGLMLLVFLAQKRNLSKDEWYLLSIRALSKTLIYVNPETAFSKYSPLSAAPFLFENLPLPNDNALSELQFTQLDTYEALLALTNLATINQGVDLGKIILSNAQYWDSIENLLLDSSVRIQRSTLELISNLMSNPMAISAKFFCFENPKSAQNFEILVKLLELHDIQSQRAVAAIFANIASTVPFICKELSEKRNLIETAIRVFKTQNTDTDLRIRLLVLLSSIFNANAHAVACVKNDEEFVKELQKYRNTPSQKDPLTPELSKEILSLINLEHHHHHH
- Assay Info: ITC; 25 °C, VP-ITC; 10 μM SHE4 in the cell, 90 μM (N475A: 107 μM) peptide in the syringe; 10 mM HEPES pH 8.0, 150 mM NaCl, 1 mM TCEP; single site model
- Measurement Parameters: both partners purified
pKd: −log10 of the molar value.
Parameter: pKd

[[record]]
binder = "WKFIVSHYAVDVEY (tryptophan introduced at the N-terminus for peptide quantification; also called myosin peptide; core of the myosin motif; source: synthetic peptide (in-house, HPLC purified)) [Myo4 peptide (residues 561–573)]"
result_number = 6.22

